Ref: patent US20260258115A1

test_system: RSV prefusion F (preF), subtype A (respiratory syncytial virus, subtype A, UniProt P03420 26-513)
assay_remarks: BLI, IgG
property_measured: Kd (nM)

{"binder": "ADI-20981 (antibody, V domains shown) VH: QVQLQESGPRLVKPSETLSLTCTVSGDSISSRNYFWAWIRQPPGKGLEWIGTIYYSGNTYSNPSLKSRVTISVDTSKKQFSLNLSSVTAADTAVYYCARGAYGGDAFDIWGQGTVVTVSS VL: DIRVTQSPSSVSASVGDRVTITCRASQGIGTWLAWYQQKPGKAPHLLIYAASRLQSGVPSRFSGSGSGTDFTLSISSLHPEDFATYYCQQAYAFPRTFGQGTKVEIK", "property_measured": "Kd", "result": 2.34}
{"binder": "ADI-14419 (antibody, V domains shown, also called Ab 85) VH: EVQLVESGGGVVQPGGSLRLSCAASGFSFSDYGMHWVRQAPGKGLEWVSFIRYDASYKFYADSVKGRFTISRDNAKNTLYLQINSLRAEDTAVYYCAKEIYGSGSYYYYYYAIDVWGQGTTVTVSS VL: EIVLTQSPGTLSLSPGERATLSCRASQSVSSSHLAWYQQKPGQAPRLLIYGASSRATGIPDRFSGSGSGTDFTLTISRLEPEDFAVYYCQQYFRSAWAFGQGTKVDIK", "property_measured": "Kd", "result": 2.69}
{"binder": "ADI-20962 (antibody, V domains shown) VH: QVQLVQSGAEVKKPGASVKVSCKASGYTFSHYGLSWVRQAPGQGLEWMGWISAYNHNTNYAQKFQGRVTITTDTSTSTAYLEMRSLRSDDTAVYYCAREPPSDTAAGTGDYWGQGTLVTVSS VL: DIVMTQSPLSLSVTLGQPASISCRSSQSLVYSDGNTYLTWFQQRPGQSPRRLIYKVSNRDSGVPDRFSGSGSGTDFTLKISRVEAEDVGVYYCMQGTQWPRTFGQGTKVDIK", "property_measured": "Kd", "result": 0.289}
